TARGET_DESC: T1, growth differentiation factor 5 (GDF5), wild type (UniProt P43026 382-501)
T1 construct: GDF5, disulfide-linked dimer; also called wild-type GDF5
T1 sequence (looked up): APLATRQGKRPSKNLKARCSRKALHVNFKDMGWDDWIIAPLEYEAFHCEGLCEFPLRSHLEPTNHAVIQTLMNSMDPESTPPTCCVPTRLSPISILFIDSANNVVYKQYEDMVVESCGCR
TEST_PROTOCOL: SPR; Biacore T200, 25 °C; GDF5 and BMP2 covalently linked to a CM5 chip by primary amine coupling, RGMs as analytes; 0.5 M NaCl, 20 mM Hepes pH 7.4, 0.05% Tween 20; equilibrium binding, 1:1 Langmuir isotherm; apparent affinity
CONDITION_PARAMETERS: both partners purified
Would you mind telling me the reported pKd of each entry?
In plain terms, pKd is the concentration in mol/L turned into minus its base-10 logarithm.

Looking for the measured pKd of N-terminal domain of human RGMC (RGMCND, Gln36–Pro145) (domain or fragment, Asn-linked glycans cut down to one N-acetylglucosamine for crystallization; kept fully glycosylated for binding assays, Glu-Thr-Gly from the pHLsec vector, after the N-terminal secretion signal; human RGMC (Hemojuvelin), N-terminal domain, residues Gln36–Pro145 of UniProtKB Q6ZVN8-1; also called Hemojuvelin; HFE2; source: HEK-293T, transient transfection, secreted, purified (IMAC, SEC)) ETGQCKILRCNAEYVSSTLSLRGGGSSGALRGGGGGGRGGGVGSGGLCRALRSYALCTRRTARTCRGDLAFHSAVHGIEDLMIQHNCSRQGPTAPPPPRGPALPGAGSGLPAP , can you help?
5.41

Cool, now N-terminal domain of human RGMA (RGMAND, Ser46–Ser139) (domain or fragment, Asn-linked glycans cut down to one N-acetylglucosamine for crystallization; kept fully glycosylated for binding assays, Glu-Thr-Gly from the pHLsec vector, after the N-terminal secretion signal; human RGMA, N-terminal domain, residues Ser46–Ser139 of UniProtKB Q96B86-1; source: HEK-293T, transient transfection, secreted, purified (IMAC, SEC)) ETGSPCKILKCNSEFWSATSGSHAPASDDTPEFCAALRSYALCTRRTARTCRGDLAYHSAVHGIEDLMSQHNCSKDGPTSQPRLRTLPPAGDSQERS
4.78

Cool, now N-terminal domain of human RGMB (RGMBND, Gln53–His136) (domain or fragment, N-linked glycan on Asn120 (cut down to one N-acetylglucosamine for crystallization; kept fully glycosylated for binding assays); methylated for crystal form 2) ETGQCRIQKCTTDFVSLTSHLNSAVDGFDSEFCKALRAYAGCTQRTSKACRGNLVYHSAVLGISDLMSQRNCSKDGPTSSTNPEVTHGTKHHHHHH
5.57

Cool, now extracellular domain of human RGMB (RGMBECD, Gln53–Ser411) (domain or fragment, Asn-linked glycans cut down to one N-acetylglucosamine for crystallization) ETGQCRIQKCTTDFVSLTSHLNSAVDGFDSEFCKALRAYAGCTQRTSKACRGNLVYHSAVLGISDLMSQRNCSKDGPTSSTNPEVTHDPCNYHSHAGAREHRRGDQNPPSYLFCGLFGDPHLRTFKDNFQTCKVEGAWPLIDNNYLSVQVTNVPVVPGSSATATNKITIIFKAHHGCTDQKVYQAVTDDLPAAFVDGTTSGGDSDAKSLRIVERESGHYVEMHARYIGTTVFVRQVGRYLTLAIRMPEDLAMSYEESQDLQLCVNGCPLSERIDDGQGQVSAILGHSLPRTSLVQAWPGYTLETANTQCHEKMPVKDIYFQSCVFDLLTTGDANFTAAAHSALEDVEALHPRKERWHIFPSSGTKHHHHHH
5.06
